Molecular target: hGHS-R1a (Homo sapiens)
Construct: expressed in transfected cells
Test: Activation-desensitization profile, Ca2+ flux in HEK293 cells stably expressing hGHS-R1a
Type: cell-based
Details: higher positive = less desensitization potential
Quick list: Δ(activity-desensitization) (pEC50 − pDC50) per entry.
Answer with the value's number alone.

Below, 3 compounds whose answers are already recorded.
CN1N=C2CCN(C(=O)[C@@H](COCc3ccccc3)NC(=O)C(C)(C)N)C[C@@]2(Cc2ccccc2)C1=O [Capromorelin, capromorelin, reference compound]    0.91
CC(C)C[C@H]1NC(=O)[C@@H](C)N(C)C(=O)[C@H](C2CCCCC2)NC[C@H]2CCc3cccc(c3O2)CCCNC1=O    3.30
CC(C)C[C@H]1NC(=O)[C@@H](C)N(C)C(=O)[C@H](C2CC2)NC[C@@H](C)Oc2ccccc2CC[C@H](C)NC1=O    3.08

Field: next compound
# get_value(readout='Δ(activity-desensitization) (pEC50 − pDC50)', item= CC1CNC(C2CC2)C(=O)N(C)C(C)C(=O)NC(Cc2ccc(O)cc2)C(=O)NCCCC2CCCCC2O1 (mixture of isomers) )
1.90

----------
Biological target: human growth hormone secretagogue receptor (hGHS-R1a) (Homo sapiens, UniProt Q92847)
Sequence (Q92847 whole entry): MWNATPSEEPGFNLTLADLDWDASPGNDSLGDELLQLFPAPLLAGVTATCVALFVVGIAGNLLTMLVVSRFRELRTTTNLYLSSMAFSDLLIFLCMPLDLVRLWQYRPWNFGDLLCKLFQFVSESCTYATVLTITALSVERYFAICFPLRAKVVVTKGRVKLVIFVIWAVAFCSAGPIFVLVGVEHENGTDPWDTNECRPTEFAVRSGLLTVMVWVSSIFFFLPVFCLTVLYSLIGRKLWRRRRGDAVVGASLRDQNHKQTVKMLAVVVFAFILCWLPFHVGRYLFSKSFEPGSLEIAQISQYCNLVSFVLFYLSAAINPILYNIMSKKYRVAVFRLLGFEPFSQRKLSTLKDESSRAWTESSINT
Test: Competitive radioligand binding assay (ghrelin receptor), standard method A
Conditions: binding activity at the human ghrelin receptor, standard method A
Excerpt: A competitive binding assay at the human growth hormone secretagogue receptor (hGHS-R1a) can be carried out analogously to assays described in the literature. (Bednarek, M. A.; et al. J. Med. Chem. 2000, 43, 4370-4376; Palucki, B. L.; et al. Bioorg. Med. Chem. Lett. […], 11, 1955-1957.) See also U.S. patent application Ser. Nos. 11/149,512 and 11/149,731. Binding activity at the gherlin receptor for representative compounds of the present invention is shown in the Examples below.
Quick list: Ki per entry.

Below, 5 molecules whose answers are already recorded.
C[C@@H]1C(=O)N[C@H](Cc2ccc(O)cc2)C(=O)NCCCc2cccc3c2O[C@H](CC3)CN[C@@H](C2CCCCC2)C(=O)N1C    ≤ 1 nM
CC[C@H](C)[C@@H]1NCCOc2cccnc2CCCNC(=O)[C@@H](Cc2ccc(O)cc2)NC(=O)[C@@H](C)N(C)C1=O    ≤ 100 nM
CC[C@H](C)[C@@H]1NC[C@@H](C)Oc2c(F)cccc2CCCNC(=O)[C@@H](Cc2cccnc2)NC(=O)[C@@H](C)N(C)C1=O    ≤ 100 nM
CC(C)C[C@H]1NC(=O)[C@@H](C)N(C)C(=O)[C@H](C2CC2)NCCOc2c(ccc(F)c2F)CCCNC1=O    ≤ 10 nM
CC(C)C[C@H]1NC(=O)[C@@H](C)N(C)C(=O)[C@H](C2CC2)NCCOc2ccccc2CC[C@H](C)NC1=O    ≤ 100 nM

Field: next molecule
# get_value(readout='Ki', item= `CC[C@H](C)[C@@H]1NC[C@@H](C)Oc2cccnc2CCCNC(=O)[C@@H](Cc2ccccc2)NC(=O)[C@@H](C)N(C)C1=O` )
≤ 100 nM

----------
Target: human growth hormone secretagogue receptor (hGHS-R1a) (Homo sapiens)
Assay: Competitive radioligand binding assay (ghrelin receptor), standard method A
Conditions: binding activity at the human ghrelin receptor, standard method A
pKi: −log10 of the molar value.
readout kind: pKi

Below, 3 molecules whose answers are already recorded.
COC(=O)C[C@H]1NC(=O)[C@@H](C)N(C)C(=O)[C@H](C2CC2)NC[C@@H](C)Oc2ccccc2CCCNC1=O [Compound 1090]    ≥ 6.30
CC(C)[C@@H]1NC[C@@H](C)Oc2ccccc2CCCNC(=O)[C@@H](Cc2ccc(F)cc2)NC(=O)[C@@H](C)N(C)C1=O [Compound 857]    ≥ 6.30
CC[C@H](C)[C@@H]1NC[C@@H](C)Oc2cc(F)ccc2CCCNC(=O)[C@@H](Cc2ccc(F)cc2)NC(=O)[C@@H](C)N(C)C1=O [Compound 856]    ≥ 6.30

# get_value(readout='pKi', item= CC1CNC(C2CC2)C(=O)N(C)C(C)C(=O)NC(Cc2ccccc2O)C(=O)NCCCC2CCCCC2O1 (mixture of isomers) [Compound 1115] )
≥ 6.30

# get_value(readout='pKi', item= CC[C@H](C)[C@@H]1NC[C@@H](C)Oc2cccnc2CCCNC(=O)[C@@H](Cc2ccc(F)cc2)NC(=O)[C@@H](C)N(C)C1=O [Compound 1029] )
≥ 8.00

# get_value(readout='pKi', item= CC(C)[C@@H]1CN[C@@H](C2CC2)C(=O)N(C)[C@H](C)C(=O)N[C@H](Cc2ccc(Cl)cc2)C(=O)NCCCc2ccc(F)cc2O1 [Compound 966] )
≥ 6.30

# get_value(readout='pKi', item= CC[C@H](C)[C@@H]1NC[C@@H](C)Oc2ccccc2CCCNC(=O)[C@@H](Cc2ccccc2)NC(=O)[C@@H](CO)N(C)C1=O [Compound 939] )
≥ 7.00

# get_value(readout='pKi', item= CC(C)[C@@H]1NC[C@@H](C)Oc2ccccc2CCCNC(=O)[C@@H](Cc2ccccc2)NC(=O)[C@@H](C)N(C)C1=O [Compound 871] )
≥ 6.30

# get_value(readout='pKi', item= C[C@@H]1C(=O)N[C@H](Cc2ccc(Cl)cc2)C(=O)NCCCc2ccc(F)cc2OCCN[C@@H](C2CC2)C(=O)N1C [Compound 864] )
≥ 8.00
